Listed here: items and their measured upper left quadrant, percent of cells AF647+ / hTcRβ-PerCP-.
- Target Of Assay: T1, human CD3e (T-cell surface glycoprotein CD3 epsilon chain) (human, UniProt P07766 23-207)
- T1 construct: Target of the anti-hCD3e antibodies on human PBMC, Jurkat cells and cells expressing human CD3e; on T cells it is part of the CD3/TCR complex; also called hCD3e; CD3e on human PBMC
- Experiment Summary: flow cytometry, human PBMC, antibody 0.1 µg/mL, anti-human IgG Fc-Alexa Fluor647 (1:500), anti-hTcRβ-PerCP (1:30)
Give a bare numeral; the unit % is implied.

1B1-H4K2-IgG1-LALA (antibody, V domains shown, Humanized; human IgG1 with LALA mutations; also called H4K2 (humanized 1B1)) VH: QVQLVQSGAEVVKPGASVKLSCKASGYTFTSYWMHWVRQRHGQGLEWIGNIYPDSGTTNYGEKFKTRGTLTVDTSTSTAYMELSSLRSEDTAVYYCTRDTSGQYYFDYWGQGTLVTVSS VL: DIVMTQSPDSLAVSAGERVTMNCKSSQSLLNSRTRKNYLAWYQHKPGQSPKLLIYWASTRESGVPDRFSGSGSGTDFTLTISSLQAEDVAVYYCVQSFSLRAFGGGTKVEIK	12.6
1B1-H1K1-IgG1-LALA (antibody, V domains shown, Humanized; human IgG1 with LALA mutations; also called H1K1 (humanized 1B1)) VH: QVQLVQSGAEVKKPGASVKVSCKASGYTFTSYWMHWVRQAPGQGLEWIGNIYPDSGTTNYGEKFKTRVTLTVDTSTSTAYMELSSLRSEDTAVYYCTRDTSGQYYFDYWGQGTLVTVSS VL: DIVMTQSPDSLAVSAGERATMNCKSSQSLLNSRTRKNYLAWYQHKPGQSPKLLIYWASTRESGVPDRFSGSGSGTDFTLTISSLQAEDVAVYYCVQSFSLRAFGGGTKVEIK	11.9
1B1-H3K1-IgG1-LALA (antibody, V domains shown, Humanized; human IgG1 with LALA mutations; also called H3K1 (humanized 1B1)) VH: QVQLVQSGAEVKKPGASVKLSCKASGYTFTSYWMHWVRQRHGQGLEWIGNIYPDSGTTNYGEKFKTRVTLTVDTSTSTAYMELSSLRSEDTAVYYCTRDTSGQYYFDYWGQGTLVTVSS VL: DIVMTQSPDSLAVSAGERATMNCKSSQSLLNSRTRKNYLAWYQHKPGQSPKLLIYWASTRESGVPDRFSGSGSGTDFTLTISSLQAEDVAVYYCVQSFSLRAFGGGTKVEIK	11.8
1B1-H3K3-IgG1-LALA (antibody, V domains shown, Humanized; human IgG1 with LALA mutations; also called H3K3 (humanized 1B1)) VH: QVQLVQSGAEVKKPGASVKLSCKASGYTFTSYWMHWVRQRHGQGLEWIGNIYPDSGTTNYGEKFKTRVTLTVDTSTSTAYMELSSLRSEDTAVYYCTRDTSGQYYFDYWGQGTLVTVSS VL: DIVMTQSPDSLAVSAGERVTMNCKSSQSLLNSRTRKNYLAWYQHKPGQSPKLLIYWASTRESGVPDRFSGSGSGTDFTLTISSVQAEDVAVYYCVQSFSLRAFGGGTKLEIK	11.8

Asked: Given the binder 1B1-H2K1-IgG1-LALA (antibody, V domains shown, Humanized; human IgG1 with LALA mutations; also called H2K1 (humanized 1B1)) VH: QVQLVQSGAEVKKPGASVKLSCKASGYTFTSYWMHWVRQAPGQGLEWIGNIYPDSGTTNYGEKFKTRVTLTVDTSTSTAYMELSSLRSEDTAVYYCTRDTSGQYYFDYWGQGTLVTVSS VL: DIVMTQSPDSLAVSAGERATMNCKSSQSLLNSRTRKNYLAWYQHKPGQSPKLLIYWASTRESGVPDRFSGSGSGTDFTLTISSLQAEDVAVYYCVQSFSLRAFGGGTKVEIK , what is its reported upper left quadrant, percent of cells AF647+ / hTcRβ-PerCP-?
Given back: 9.82

Asked: Item under review: 1B1-H1K2-IgG1-LALA (antibody, V domains shown, Humanized; human IgG1 with LALA mutations; also called H1K2 (humanized 1B1)) VH: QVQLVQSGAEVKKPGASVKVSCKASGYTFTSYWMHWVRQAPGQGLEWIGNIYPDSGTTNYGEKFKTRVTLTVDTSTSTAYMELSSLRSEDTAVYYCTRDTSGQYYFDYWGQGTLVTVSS VL: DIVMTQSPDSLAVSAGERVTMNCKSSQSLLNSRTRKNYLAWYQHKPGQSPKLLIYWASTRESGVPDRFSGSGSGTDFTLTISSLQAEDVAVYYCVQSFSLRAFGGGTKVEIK . Reported upper left quadrant, percent of cells AF647+ / hTcRβ-PerCP-?
Given back: 11.6

Asked: Name the reported upper left quadrant, percent of cells AF647+ / hTcRβ-PerCP- value associated with the binder 1B1-H1K3-IgG1-LALA (antibody, V domains shown, Humanized; human IgG1 with LALA mutations; also called H1K3 (humanized 1B1)) VH: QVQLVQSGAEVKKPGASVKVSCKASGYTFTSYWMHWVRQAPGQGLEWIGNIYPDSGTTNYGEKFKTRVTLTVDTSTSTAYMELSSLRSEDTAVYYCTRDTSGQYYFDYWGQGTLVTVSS VL: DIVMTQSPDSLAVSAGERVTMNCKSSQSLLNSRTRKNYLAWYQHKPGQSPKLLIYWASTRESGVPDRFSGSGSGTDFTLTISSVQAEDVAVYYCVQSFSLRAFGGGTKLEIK
Given back: 13.9

Asked: For the binder shown here, 1B1-H3K2-IgG1-LALA (antibody, V domains shown, Humanized; human IgG1 with LALA mutations; also called H3K2 (humanized 1B1)) VH: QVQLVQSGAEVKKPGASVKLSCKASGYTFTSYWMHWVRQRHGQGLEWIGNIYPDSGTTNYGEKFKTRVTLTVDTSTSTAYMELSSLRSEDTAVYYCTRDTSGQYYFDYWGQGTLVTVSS VL: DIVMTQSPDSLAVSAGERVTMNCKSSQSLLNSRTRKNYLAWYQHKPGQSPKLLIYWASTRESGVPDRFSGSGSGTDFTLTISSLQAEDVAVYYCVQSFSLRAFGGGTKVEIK , give the reported upper left quadrant, percent of cells AF647+ / hTcRβ-PerCP-.
Given back: 10.2

Asked: Look up upper left quadrant, percent of cells AF647+ / hTcRβ-PerCP- for this binder: 1B1-H4K1-IgG1-LALA (antibody, V domains shown, Humanized; human IgG1 with LALA mutations; also called H4K1 (humanized 1B1)) VH: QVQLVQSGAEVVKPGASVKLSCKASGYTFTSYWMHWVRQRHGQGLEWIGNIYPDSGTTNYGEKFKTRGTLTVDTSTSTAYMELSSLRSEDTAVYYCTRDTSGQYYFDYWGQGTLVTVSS VL: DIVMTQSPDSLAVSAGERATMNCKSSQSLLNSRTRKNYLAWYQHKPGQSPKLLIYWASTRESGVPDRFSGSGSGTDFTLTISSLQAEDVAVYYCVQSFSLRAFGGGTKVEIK
Given back: 13.1

Asked: Please give the measured upper left quadrant, percent of cells AF647+ / hTcRβ-PerCP- for this binder: 1B1-H2K3-IgG1-LALA (antibody, V domains shown, Humanized; human IgG1 with LALA mutations; also called H2K3 (humanized 1B1)) VH: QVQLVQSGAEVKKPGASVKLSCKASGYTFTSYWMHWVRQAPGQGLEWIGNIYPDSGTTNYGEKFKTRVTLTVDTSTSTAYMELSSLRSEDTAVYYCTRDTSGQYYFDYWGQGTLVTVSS VL: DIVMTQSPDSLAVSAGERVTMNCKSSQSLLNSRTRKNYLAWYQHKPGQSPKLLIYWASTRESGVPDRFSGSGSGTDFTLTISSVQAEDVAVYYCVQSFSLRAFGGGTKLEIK
Given back: 10.8

Asked: upper left quadrant, percent of cells AF647+ / hTcRβ-PerCP- for 1B1-H2K2-IgG1-LALA (antibody, V domains shown, Humanized; human IgG1 with LALA mutations; also called H2K2 (humanized 1B1)) VH: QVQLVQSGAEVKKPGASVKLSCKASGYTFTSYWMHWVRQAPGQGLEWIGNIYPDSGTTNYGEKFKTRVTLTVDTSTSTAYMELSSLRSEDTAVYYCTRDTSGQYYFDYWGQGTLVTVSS VL: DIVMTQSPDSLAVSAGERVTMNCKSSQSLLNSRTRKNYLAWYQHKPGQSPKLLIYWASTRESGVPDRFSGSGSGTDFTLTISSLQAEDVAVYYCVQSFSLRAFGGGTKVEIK ?
Given back: 14.1
